The reader will find reported soluble fraction (log2) values listed item by item below.
assay: soluble fraction after stress (log2 fold change); higher = more stays soluble; pooled small domains, quantitative proteomics; details: stress: 75 degC;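 also: 20 min heating vs room temperature control held 20 min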
Write the number on its own, no unit after it.

Answered cases to consult:
• HMLKEDSAYELGLRIFDQALNDYGTSFIDLKEDEYKKVLSIYGYSNPRQLIINIGLGNVIPHLLARDITE = -1.34
• HMQQEAVSGKLLQLDLAKKEGRLSTDLGREVLFHIPKPELFVHLSVGQRIIIKLDAGQEAVGV = -0.178
• HMDLMKKTLTKEMLLIDFMKQQFPDSSTNKLRKMLSSGRVKINNLITHKAKSQLKLGDIFELANKPHD = -1.31

Would you kindly look at the next entry?
*Q* Requested field: soluble fraction (log2). Item: HMDDPEISQEQRQQLFRTAKEHFGASGNDVLKEILADHGRDSTVKMPVSVFAEIMGDLLKRALD
*A* 0.612
